System: Sorghum halepense
Experiment: Phytotoxicity against Sorghum halepense assessed as brownish-black necrotic lesion area at 50 ug within 48 hrs by detached leaf assay
Format: functional
Measured Activity by item
Give the figure together with its unit, number first.

Worked cases, Activity given:
> print(dat)
                              smiles.record  reading
1  Cc1cccc(O)c1C(=O)O[C@@H]1C(=O)C(CO)=C[C@@H](O)[C@H]1O    7 mm2
2                        Cc1cccc(O)c1C(=O)O   15 mm2
3       O=C1C(CO)=C[C@@H](O)[C@H]2O[C@@H]12   37 mm2

// moving on: another record for Activity
# query: Activity of entry CC1=C[C@@H](O)[C@H]2O[C@H]2C1=O 30 mm2

----------
Listed compounds paired with reported Activity
Test system: Chenopodium album
Assay: Phytotoxicity against Chenopodium album assessed as brownish-black necrotic lesion area at 50 ug within 48 hrs by detached leaf assay
Assay type: functional
Kindly answer with a numeric value in mm2, unit omitted.

Here are 3 compounds together with their reported answers.
> print(dat)
                         smiles.record   target.or.system  reading
1                   Cc1cccc(O)c1C(=O)O  Chenopodium album       27
2  O=C1C(CO)=C[C@@H](O)[C@H]2O[C@@H]12  Chenopodium album       62
3      CC1=C[C@@H](O)[C@H]2O[C@H]2C1=O  Chenopodium album       57

Attention now turns to another entry.
Fill blank: measured Activity of the compound Cc1cccc(O)c1C(=O)O[C@@H]1C(=O)C(CO)=C[C@@H](O)[C@H]1O is ____. 13

----------
Tested on: Sorghum bicolor
Test: Phytotoxicity against Sorghum bicolor assessed as brownish-black necrotic lesion area at 50 ug within 48 hrs by detached leaf assay
Format: functional
The entries below are paired with their reported Activity.

Take a look at these entries with their results.
> print(dat)
                         smiles.record  target.or.system  experimental.endpoint  reading
1      CC1=C[C@@H](O)[C@H]2O[C@H]2C1=O   Sorghum bicolor               Activity   69 mm2
2  O=C1C(CO)=C[C@@H](O)[C@H]2O[C@@H]12   Sorghum bicolor               Activity   31 mm2
3                   Cc1cccc(O)c1C(=O)O   Sorghum bicolor               Activity   37 mm2

State the recorded Activity for this entry: Cc1cccc(O)c1C(=O)O[C@@H]1C(=O)C(CO)=C[C@@H](O)[C@H]1O 41 mm2
